The origin of these recorded values is patent US20250136555A1.

- Measured Target: PPARδ (Homo sapiens, UniProt Q03181)
- Construct: expressed in transfected cells; host or cells: COS-7
- Sequence (Q03181 211-439 limits assumed): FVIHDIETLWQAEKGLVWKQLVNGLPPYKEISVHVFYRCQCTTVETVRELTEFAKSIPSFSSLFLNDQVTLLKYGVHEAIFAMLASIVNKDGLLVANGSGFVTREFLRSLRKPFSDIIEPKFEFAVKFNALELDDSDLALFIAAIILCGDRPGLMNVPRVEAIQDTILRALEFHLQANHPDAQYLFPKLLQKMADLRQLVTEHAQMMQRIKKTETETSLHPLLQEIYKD
- Test Summary: GAL4 hybrid reporter gene method, PPARδ agonistic activity
- Format: cell-based
Property: pEC50
In simple prose, pEC50 is minus the logarithm base ten of a concentration in moles per litre.

The recorded pEC50 for entry COc1cc(CN2C(=O)CN(c3ccc(C(F)(F)F)cc3)C2=O)ccc1OC(C)(C)C(=O)O equals 5.85

The recorded pEC50 for entry Cc1cc(CCN2CC(=O)N(c3ccc(C(F)(F)F)cc3)C2=O)cc(C)c1OC(C)(C)C(=O)O equals 6.45

The recorded pEC50 for entry CC(C)(Oc1ccc(CN2C(=O)CN(c3ccc(C(F)(F)F)cc3)C2=O)cc1Br)C(=O)O equals 7.60

The recorded pEC50 for entry Cc1cc(CN2C(=O)CN(c3ccc(C4CC4)cc3)C2=O)cc(C)c1OC(C)(C)C(=O)O equals 7.99

The recorded pEC50 for entry COc1cc(CN2C(=O)CN(c3ccc(C(F)(F)F)cc3)C2=O)cc(Cl)c1OC(C)(C)C(=O)O equals 7.51

The recorded pEC50 for entry Cc1cc(CN2C(=O)CN(c3ccc(C(F)(F)F)cc3)C2=O)cc(Cl)c1OC(C)(C)C(=O)O equals 7.97
